# Protocol notes: gradient 5% acetonitrile 3 min, to 50% in 2 min, to 85% in 15 min, held 3 min, 100 µL/min
# Measurement setup: column: Zorbax Extend-C18 2.1 x 50 mm; eluents: water / acetonitrile, 0.1% formic acid
I'd appreciate it if you could label each record using RP-LC retention time and these ranges: low: < 700 s; medium: ≥ 700 s and < 800 s; high: ≥ 800 s

O=C(CC1CCN(C(=O)Nc2ccc(F)cc2F)CC1)N1CCCCC1 : medium
CSc1ccc(-c2nc3cnccn3c2Nc2ccc3c(c2)OCCO3)cc1 : high
COc1ccc(C)cc1NC(=O)N1CCCC1c1cc(C)no1 (stereo not given) : high
CCCNC(=O)C1CCCN(c2ccc(SCC(=O)Nc3ccc(C)c(Cl)c3)nn2)C1 (stereo not given) : medium
Cn1nnnc1SCC(=O)NCCn1nc(-c2cccs2)ccc1=O : low
NC(=O)C(c1ccccc1)(c1ccccc1)[C@@H]1CCN(CCc2ccc3c(c2)CCO3)C1 : medium
COc1cc(C)c(C)cc1S(=O)(=O)Nc1ccc2c(c1)N(S(C)(=O)=O)CCC2 : high
CNC(=O)NC1CCN(c2nc3cccnc3n(Cc3ccc(C)cc3)c2=O)CC1 : high
CN(C)c1cccc(C(=O)NCC2(O)CCCC2)c1 : low
COc1cc2c(cc1Cc1cccc(Cl)c1F)c(=O)c(C(=O)O)cn2[C@H](CO)C(C)C : high
COc1ccccc1-c1nc2nccc(-c3ccncc3)n2n1 : low
Cc1oc(C2CCN(C(=O)Nc3cccc(Cl)c3C)CC2)nc1C(=O)N(C)C : medium
C=CCn1c(SCCC(=O)O)nnc1-c1cccs1 : low
CCOC(=O)c1[nH]c(C)c(CCC(=O)N2CCC(C(=O)NCc3cccnc3)CC2)c1C : low
COc1ccccc1/C=C/c1nc(C#N)c(NCCN(C)C)o1 : low
Cc1cc(-c2nnc(-c3ccc(F)cc3)o2)c(C)n1CC(=O)Nc1ccc2c(c1)OCO2 : high
CC(C)Oc1ccc(-c2noc(CN3N=NC4C(=O)N(c5ccc6c(c5)CCC6)C(=O)C43)n2)cc1 (stereo not given) : high

* * *

# Protocol notes: gradient 5% acetonitrile 3 min, to 50% in 2 min, to 85% in 15 min, held 3 min, 100 µL/min
# Measurement setup: column: Zorbax Extend-C18 2.1 x 50 mm; eluents: water / acetonitrile, 0.1% formic acid
Recorded RP-LC retention time, one value per entry.
Reported endpoint: RP-LC retention time (s)

CCCc1ccc(-c2cc(C(=O)N3CCN(c4ccccn4)CC3)c3ccccc3n2)cc1 : 857
O=c1c2sccc2n(Cc2nc(-c3ccc(C(F)(F)F)cc3)no2)c(=O)n1Cc1ccccc1 : 1200
CCc1nc2cc(-c3noc(-c4ccc(C)cc4)n3)ccc2o1 : 1270
Cc1c2ccnc(C(N)=O)c2c(C)c2c1[nH]c1ccccc12 : 619
O=C(CCCc1ccccc1)N1CC(n2ccnc2)C1 : 606
COc1ccc(C(=O)Nc2nc(-c3ccc4c(c3)N(C)C(=O)CO4)cs2)cc1OC : 785
COc1cccc(Cn2c(=O)c3ccnn3c3ccc(C(=O)O)cc32)c1 : 785
Cc1cccc(S(=O)(=O)Nc2cc(-c3cn4ccc(C)cc4n3)ccc2C)c1 : 704
O=C(CSc1nnc(-c2ccc(Cl)cc2)o1)Nc1nccs1 : 867
CC(=O)N1c2ccc(S(=O)(=O)N3CCCCC3)cc2CC1C(=O)NCCN1CCCCCC1 (stereo not given) : 639
CCCn1nc(CNC(=O)c2ccoc2)c2ccccc21 : 789
Cc1ccc(C)c(NC(=O)C2CCN(S(=O)(=O)c3c(C)[nH]c(C)c3C(=O)N3CCCC3)CC2)c1 : 726
Cc1cc(NC(=O)C2CCN(C(=O)c3ncn4c3COC(c3ccc(F)cc3)C4)CC2)ccc1F (stereo not given) : 839
CCn1cnc(S(=O)(=O)N2CCCC(C(=O)Nc3cccc(C(F)(F)F)c3)C2)c1 (stereo not given) : 871
Cc1ccc(CC(=O)Nc2ccc(-c3nc(Cn4cc(C)cn4)c(C)o3)cc2)cc1 : 962
CCCCN(CC)CCCNC(=O)C1CCCN(c2ncnc3c2nc2n3CCCCC2)C1 (stereo not given) : 611
CN1C(=O)[C@H]2CN(Cc3cc(F)ccc3F)C[C@H]2C1=O : 602
C[C@@]12N[C@@H](Cc3ccccc31)c1ccccc12 : 655
O=C(C1COc2ccccc2O1)N1CC(n2ccnc2)C1 (stereo not given) : 594
C=CCOc1ccc(S(C)(=O)=O)cc1 : 814
